Recorded IC50, one value per entry.
- TESTED TARGET: p-EGFR Del19/C797S (H1975-clone #23 cells) (Homo sapiens, UniProt P00533)
- ASSAY INFO: Cell p-EGFR inhibition assay, HTRF, H1975-clone#23 (DEL19/C797S) cells
- CONDITION PARAMETERS: 16 h treatment, pEGFR inhibition
# value in nM; strip the unit string

>>> result_value("COC[C@@H]1CN(c2cc3c(cc2C)N/C2=N\\C(=O)c4cc(C)nc(c4)-c4c(C)nn(C)c4OC[C@H]4CC[C@H](C4)CN23)CCN1C1CCN(c2cc(F)c([C@H]3CCC(=O)NC3=O)c(F)c2)CC1")
3.94
>>> result_value("Cc1cc2cc(n1)-c1cnn(C)c1OC[C@H]1CCC(C1)CN1/C(=N/C2=O)Nc2ccc(N3CCN(CCc4cc(F)c(C5CCC(=O)NC5=O)nc4C)CC3)cc21 (stereo partly shown)")
1.2
>>> result_value("COC[C@@H]1CN(c2cc3c(cc2F)N/C2=N\\C(=O)c4cc(C)nc(c4)-c4c(C)nn(C)c4OC[C@H]4CC[C@H](C4)CN23)CCN1C1CCN(c2cc(F)c([C@H]3CCC(=O)NC3=O)c(F)c2)CC1")
2.5
>>> result_value("COC[C@@H]1CN(c2ccc3c(c2)N2CC4CC[C@H](COc5c(c(C)nn5C)-c5cc(cc(C)n5)C(=O)/N=C/2N3)C4)CCN1C1CCN(c2c(F)cc(NC3CCC(=O)NC3=O)cc2F)CC1 (stereo partly shown)")
1.45
>>> result_value("Cc1cc2cc(n1)-c1c(C)nn(C)c1OC[C@H]1CC[C@H](C1)CN1/C(=N/C2=O)Nc2ccc(N3CCN(CC4CN(c5cc(F)c([C@H]6CCC(=O)NC6=O)c(F)c5)C4)[C@@H](CF)C3)cc21")
1.56
>>> result_value("COC[C@H]1CN(c2ccc3c(c2)N2C[C@@H]4CC[C@H](COc5c(cnn5C)-c5cc(cc(C)n5)C(=O)/N=C/2N3)C4)CCN1C1CCN(c2ccc(C3CCC(=O)NC3=O)nc2C)CC1 (stereo partly shown)")
0.3
>>> result_value("Cc1cc2cc(n1)-c1c(C)nn(C)c1OC[C@H]1CC[C@H](C1)CN1/C(=N/C2=O)Nc2ccc(N3CCN(C4CCN(c5cc(F)c([C@H]6CCC(=O)NC6=O)c(F)c5)CC4)C[C@H]3CF)cc21")
2.48
>>> result_value("Cc1cc2cc(n1)-c1cnn(C)c1OC[C@H]1CCC(C1)CN1/C(=N/C2=O)Nc2ccc(N3CCN([C@@H]4CCN(c5ccc(OC6CCC(=O)NC6=O)cc5F)C[C@@H]4F)CC3)cc21 (stereo partly shown)")
1.3
>>> result_value("Cc1cc2cc(n1)-c1cnn(C)c1OC[C@H]1CCC(C1)CN1/C(=N/C2=O)Nc2ccc(N3CCN([C@H]4CCN(c5cc(F)c([C@H]6CCC(=O)NC6=O)c(F)c5)C[C@H]4F)CC3)cc21 (single isomer, unassigned)")
0.5

Input line: What IC50 value was documented for this compound, COC[C@H]1CN(c2ccc3c(c2)N2CC4CC[C@H](COc5c(cnn5C)-c5cc(cc(C)n5)C(=O)/N=C/2N3)C4)CCN1C1CCN(c2cc(F)c(C3CCC(=O)NC3=O)nc2C)CC1 (stereo partly shown) ?
Output line: 1.1

* * *

Below: a set of entries, each annotated with reported Imax (%).
- TESTED TARGET: p-EGFR L858R (BaF3-L858R cells) (Homo sapiens, UniProt P00533, L858R)
- Construct: host or cells: BaF3
- ASSAY INFO: Cell p-EGFR inhibition assay, HTRF, BaF3-L858R cells
- Assay type: cell-based
- CONDITION PARAMETERS: 16 h treatment, maximum percentage of pEGFR inhibition
Lab book: enter the figure in %, no units written.

Use the examples below as a reference point.
>>> result_value("COC[C@@H]1CN(c2ccc3c(c2)N2C[C@@H]4CC[C@H](COc5c(c(C)nn5CCO)-c5cc(cc(C)n5)C(=O)/N=C/2N3)C4)CCN1C1CCN(c2cc(F)c([C@H]3CCC(=O)NC3=O)c(F)c2)CC1")
96.89
>>> result_value("Cc1cc2cc(n1)-c1c(C)nn(C)c1OC[C@H]1CCC(C1)CN1/C(=N/C2=O)Nc2ccc(N3CCN([C@@H]4CCN(c5ccc(C6CCC(=O)NC6=O)nc5C)C[C@@H]4F)CC3)cc21 (some centres unmarked)")
92.7
>>> result_value("Cc1cc2cc(n1)-c1c(C)nn(C)c1OC[C@H]1CC[C@H](C1)CN1/C(=N/C2=O)Nc2ccc(N3CCN([C@H]4CCN(c5cnc(C6CCC(=O)NC6=O)cc5C)CC4(F)F)CC3)cc21 (some centres unmarked)")
106.4
>>> result_value("Cc1cc2cc(n1)-c1c(C)nn(C)c1OC[C@H]1CC[C@H](C1)CN1/C(=N/C2=O)Nc2ccc(N3C[C@H](C)N(C4CCN(c5cc(F)c([C@H]6CCC(=O)NC6=O)c(F)c5)CC4)C[C@H]3C)cc21")
90.84

Input line: Field request: Imax (%) | item: COC[C@H]1CN(c2ccc3c(c2)N2CC4CC[C@H](COc5c(c(C)nn5C)-c5cc(cc(C)n5)C(=O)/N=C/2N3)C4)CCN1C1CCN(c2cc(F)c([C@H]3CCC(=O)NC3=O)c(F)c2)CC1
Output line: 97.1

* * *

- TESTED TARGET: EGFR L858R (BaF3-L858R cells) (Homo sapiens, UniProt P00533, L858R)
- Construct: host or cells: BaF3
- ASSAY INFO: Cell degradation of EGFR, HTRF assay, BaF3-L858R cells
- Format: cell-based
- CONDITION PARAMETERS: 16 h treatment, EGFR degradation
Below, each entry is listed with its recorded DC50.
Write the answer as a number in nM, unit excluded.

Input line: Hi! What's the reported DC50 for Cc1cc2cc(n1)-c1cnn(C)c1OC[C@H]1CC[C@H](C1)CN1/C(=N/C2=O)Nc2ccc(N3CCN(C4CCN(c5ccc(C6CCC(=O)NC6=O)nc5C)CC4)CC3)cc21 (stereo partly shown) [Example 2] on EGFR L858R (BaF3-L858R cells) (Homo sapiens, UniProt P00533, L858R)?
Output line: 0.879

Input line: Form entry - test system: EGFR L858R (BaF3-L858R cells) (Homo sapiens, UniProt P00533, L858R); read-out: DC50; compound: COCCn1nc(C)c2c1OC[C@H]1CC[C@H](C1)CN1/C(=N/C(=O)c3cc(C)nc-2c3)Nc2ccc(N3CCN(C4CCN(c5cc(F)c([C@H]6CCC(=O)NC6=O)c(F)c5)CC4)CC3)cc21 [Example 161]
Output line: 7.2

Input line: Form: Entry = COC[C@@H]1CN(c2ccc3c(c2)N2CC4CC[C@H](COc5c(cnn5C)-c5cc(cc(C)n5)C(=O)/N=C/2N3)C4)CCN1C1CCN(c2ccc(C3CCC(=O)NC3=O)nc2C)CC1 (stereo partly shown) [Example 73] | System = EGFR L858R (BaF3-L858R cells) (Homo sapiens, UniProt P00533, L858R) | DC50 = ____
Output line: 2.02

Input line: Item COC[C@@H]1CN(c2ccc3c(c2)N2CC4CC[C@H](COc5c(c(C)nn5C)-c5cc(cc(C)n5)C(=O)/N=C/2N3)C4)CCN1CC1CCN(c2cc(F)c([C@H]3CCC(=O)NC3=O)c(F)c2)CC1 [Example 127] with EGFR L858R (BaF3-L858R cells) (Homo sapiens, UniProt P00533, L858R) - DC50?
Output line: 9.26

Input line: Enter reported DC50 observed with EGFR L858R (BaF3-L858R cells) (Homo sapiens, UniProt P00533, L858R) for Cc1cc2cc(n1)-c1c(C)nn(C)c1OC[C@H]1CC[C@H](C1)CN1/C(=N/C2=O)Nc2ccc(N3CC4CCC3CN4C3CCN(c4cc(F)c([C@H]5CCC(=O)NC5=O)c(F)c4)CC3)cc21 [Example 193]
Output line: 7.4

* * *

- TESTED TARGET: p-EGFR L858R (BaF3-L858R cells) (Homo sapiens, UniProt P00533, L858R)
- Construct: host or cells: BaF3
- ASSAY INFO: Cell p-EGFR inhibition assay, HTRF, BaF3-L858R cells
- Type: cell-based
- CONDITION PARAMETERS: 16 h treatment, maximum percentage of pEGFR inhibition
Imax (%) overview
Numeric answer only, unit % assumed.

Reference set, count: 2
>>> result_value("COC[C@@H]1CN(c2ccc3c(c2)N2CC4CC[C@H](COc5c(cnn5C)-c5cc(cc(C)n5)C(=O)/N=C/2N3)C4)CCN1CC1CN(c2cc(F)c([C@H]3CCC(=O)NC3=O)c(F)c2)C1 [Example 86]")
97.1
>>> result_value("COC[C@@H]1CN(c2ccc3c(c2)N2C[C@@H]4CC[C@H](COc5c(cnn5C)-c5cc(cc(C)n5)C(=O)/N=C/2N3)C4)CCN1CC1CN(c2ccc3c(c2)C(=O)N(C2CCC(=O)NC2=O)C3=O)C1 (stereo partly drawn) [Example 69]")
99.9

Continue with the next compound.
Input line: Form field - read-out: Imax (%); system: p-EGFR L858R (BaF3-L858R cells) (Homo sapiens, UniProt P00533, L858R); submitted item: Cc1cc2cc(n1)-c1c(C)nn(C)c1OC[C@H]1CCC(C1)CN1/C(=N/C2=O)Nc2ccc(N3CCN(C4CCN(c5cc(F)c([C@H]6CCC(=O)NC6=O)c(F)c5)CC4)CC3)cc21 [Example 74]
Output line: 93.3
